assay_target: Human FXIa (Homo sapiens, UniProt P03951)
Construct: purchased Enzyme Research Labs or Haematologic Technologies Inc
Sequence (P03951 388-625 limits assumed): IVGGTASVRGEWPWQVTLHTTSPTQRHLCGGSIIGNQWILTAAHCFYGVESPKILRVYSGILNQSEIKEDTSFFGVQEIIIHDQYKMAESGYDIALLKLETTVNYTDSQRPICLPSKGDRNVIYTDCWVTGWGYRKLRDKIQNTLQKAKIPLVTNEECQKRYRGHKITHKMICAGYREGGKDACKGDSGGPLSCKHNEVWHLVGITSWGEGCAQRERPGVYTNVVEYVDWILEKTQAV
Sequence (P03951 19-387 partner limits assumed): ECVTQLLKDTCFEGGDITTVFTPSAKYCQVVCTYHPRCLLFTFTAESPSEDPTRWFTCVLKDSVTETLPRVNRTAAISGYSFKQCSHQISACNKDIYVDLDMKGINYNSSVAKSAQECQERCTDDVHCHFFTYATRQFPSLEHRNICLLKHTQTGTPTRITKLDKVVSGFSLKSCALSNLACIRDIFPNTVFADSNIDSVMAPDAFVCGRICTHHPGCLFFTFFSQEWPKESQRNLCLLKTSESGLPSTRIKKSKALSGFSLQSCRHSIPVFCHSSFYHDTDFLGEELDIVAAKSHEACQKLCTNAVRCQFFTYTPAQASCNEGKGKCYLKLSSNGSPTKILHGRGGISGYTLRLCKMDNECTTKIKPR
experiment_description: FXIa enzymatic activity (chromogenic S-2366; fluorescent assay for high potency)
Format: biochemical
experimental_conditions: approximate value; read-out: IC50 as inhibitor of FXIa
readout_name: IC50

CCC(NC(=O)N1C(=O)[C@H](CCCNC(=N)N)[C@H]1C(=O)O)c1ccccc1 (stereo partly shown) ... ~0.1 nM

* * *

assay_target: FIXa (Homo sapiens, UniProt P00740)
Construct: purchased American Diagnostica
Sequence (P00740 227-461 limits assumed): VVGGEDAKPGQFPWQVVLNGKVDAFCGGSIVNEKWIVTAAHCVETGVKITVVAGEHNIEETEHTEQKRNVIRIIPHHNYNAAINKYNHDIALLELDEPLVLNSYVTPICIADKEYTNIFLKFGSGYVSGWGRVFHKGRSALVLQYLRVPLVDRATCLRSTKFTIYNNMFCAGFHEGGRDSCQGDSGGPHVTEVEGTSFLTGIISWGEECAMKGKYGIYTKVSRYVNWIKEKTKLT
Sequence (P00740 47-191 partner limits assumed): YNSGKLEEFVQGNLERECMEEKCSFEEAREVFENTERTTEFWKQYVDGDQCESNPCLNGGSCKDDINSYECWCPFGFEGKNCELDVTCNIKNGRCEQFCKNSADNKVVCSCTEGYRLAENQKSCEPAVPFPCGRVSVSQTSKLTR
experiment_description: Selectivity assay FIXa
Format: biochemical
experimental_conditions: Table 3
readout_name: IC50 (µM)

CC(C)(C)NC(=O)N1CCN(C(=O)N2C(=O)[C@H](CCCNC(=N)N)[C@H]2C(=O)O)CC1 [Example 4] ... 17.4
